Source of measurements: patent US20250340659A1

Listing of recorded % Signal Inhibition Rep3 by entry.
- EXPERIMENTAL TARGET: T1, canine OX40L, full length membrane form, expressed on HEK293 cells (canine)
- T1 chain: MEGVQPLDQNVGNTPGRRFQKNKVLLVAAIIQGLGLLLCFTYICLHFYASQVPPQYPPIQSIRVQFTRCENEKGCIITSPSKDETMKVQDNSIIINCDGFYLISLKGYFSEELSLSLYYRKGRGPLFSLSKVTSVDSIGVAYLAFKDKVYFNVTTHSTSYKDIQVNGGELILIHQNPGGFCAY
- ASSAY SUMMARY: cell-based or functional assay
Field: numeric (%). Do not append units.

// known answers, use as guide
| BINDER | RECORDED METRIC | TEST VALUE |
| --- | --- | --- |
| PMX025 (antibody, V domains shown, also called PMX25) VH: EVHLVESGGDLVKPGGSLRLSCVASGFTFSSYHMSWVRQAPGKGLQWVAFINAGEISTNYADAVKGRFTISRDNAKNILYLQMNSLRAEDTAVYYCASGHIWIRPFDYWGQGTLVTVSS VL: SYVLTQLPSMSVTLRQTARITCEGDSIGRKRVNWYQQKLGQVPVLIIYDDDSRPSGIPERFSGANSGNTATLTISGALAEDEAEYYCQVWDSSNNWVFGEGTQLTVL | % Signal Inhibition Rep3 | 68.3 |
| PMX054 (antibody, V domains shown, also called PMX54) VH: EVHLVESGGDLVKPEGSLRLSCVVSGFTFSSYDMSWVRQAPGKGLQWVAYISSDGRSTGYTDAVKGRFTISRDNAKKTLYLQMNSLRSEDTAVYYCAKETPRWGFDYWGQGTLVTVSS VL: SYVLTQLPSVSVTLRQTARITCGGASIGSKNVYWHQQKLGQAPLLIIYDDSSRPSGIPERFSGANSGNTATLTISGALAEDEADYYCQVWDSSTSVFGGGTHLTVL | % Signal Inhibition Rep3 | 42 |
| PMX154 (antibody, V domains shown) VH: EVQLVESGGDLVKPEGSLRLSCVVSGFTFSGFDMSWVRQAPGKGLQWVAYISTDGRSTGYTDAVKGRFTISRDNVKNTLYLQMNSLRTEDTAVYYCAKETRHWGFDYWGQGTLVIVSS VL: SYVLTQLSSVSVSLRQTAHITCGGDSIGRKNVYWHQQKLGRAPILIIYDDSSRPSGIPERFSGANSGNTATLTISGALAEDEAAYYCQVWDSSTSVFGGGTHLTVL | % Signal Inhibition Rep3 | 51.5 |
| PMX032 (antibody, V domains shown, also called PMX32) VH: EVQLVESGGDLVKPGGSLRLSCVASGFTFSSYHMSWVRQAPGKGLQWVAYITSGGRTTSYADAVKGRFIISRDNAKNTLYLQMNSLRAEDTAVYYCASDLVLILGGADYWGQGTLVTVSS VL: SYELTQPPSVNVTLRETAHITCGGDSIGRKYVQWIQQNPGQAPVVIIYKDNNRPTGIPERFSGANSGNTATLTISGALAEDEADYYCQVGDSGSKAVFGGGTHLTVL | % Signal Inhibition Rep3 | 75.7 |

Moving on to another binder below.
Which measured % Signal Inhibition Rep3 value corresponds to PMX040 (antibody, V domains shown, also called PMX40) VH: EVQLVESGGDLVKPGGSLRLSCVASGFTFSNFEMYWVRQAPGKGLEWVARIYESGTTTYHAEGVKGRFTISKDNVKNMAYLQMNSLRAEDTAVYYCTSASSSSWRFDYWGQGTLVTVSS VL: SYVLTQLPSVSVTLRQTARITCGGDSIGRKNVCWFQQKLGQAPILIIYDDSSRPSGIPERFSGANSGNTATLTISGALAEDEADYYCQVWDSSTGIFGGGTHLTVL ? 71.8
